Tested on: PANC-1
Assay: SRB colorimetric assay of cell growth and viability, PANC-1
Assay type: cell-based, human
Conditions: 48 hours exposure
Where a SMILES comes first, the peptide text is derived from it. Bridges are numbered along the chain shown (N, C = ends). [ ]: non-standard residue; d: D form. The star is where a group is joined. d(aThr) = C[C@@H](O)[C@@H](N)C(=O)O; Hexanoyl(5-Me) = CC(C)CCCC(=O)*; Orn = NCCC[C@H](N)C(=O)O; Dhb = C/C=C(\N)C(=O)O
assay.metric: GI50 (µM)
Write it as a number; the unit µM goes unstated.

Problem: Endpoint output: GI50 of C/C=C1\NC(=O)[C@H](Cc2ccccc2)NC(=O)[C@@H](C(C)C)NC(=O)[C@@H](C(C)C)NC(=O)[C@H](NC(=O)[C@H](NC(=O)[C@H](CCCN)NC(=O)[C@H]2CCCN2C(=O)[C@H](NC(=O)[C@@H](NC(=O)[C@@H](NC(=O)[C@H](NC(=O)CCCC(C)C)C(C)C)[C@@H](C)O)C(C)C)C(C)C)C(C)C)[C@@H](C)OC(=O)[C@H](C(C)C)NC1=O [Compound 12, [D-Val^5, D-Val^7]-KF] ({Hexanoyl(5-Me)}-[dV]TV[dV][dP][Orn][dV][d(aThr)][dV][dV]F[Dhb]V; ester 8-C) . Value?
Result: 4.67

Problem: Next compound up: C/C=C1\NC(=O)[C@H](Cc2ccccc2)NC(=O)[C@@H](C(C)C)NC(=O)[C@@H]([C@@H](C)CC)NC(=O)[C@H](NC(=O)[C@H](NC(=O)[C@H](CCCN)NC(=O)[C@H]2CCCN2C(=O)[C@H](NC(=O)[C@@H](NC(=O)[C@@H](NC(=O)[C@H](NC(=O)CCCCCCCCCCCCCCCCCCC)C(C)C)[C@@H](C)O)C(C)C)C(C)C)[C@@H](C)CC)[C@@H](C)OC(=O)[C@H](C(C)C)NC1=O [Compound 13, [Icos^14]-KF]
Result: 2.02

* * *

Test system: HT-29
Test: SRB colorimetric assay of cell growth and viability, HT-29
Type: cell-based, human
Settings: HT-29; 48 hours exposure; read-out: LC50 HT-29
Where a SMILES comes first, the peptide text is derived from it. Bridges are numbered along the chain shown (N, C = ends). [ ]: non-standard residue; d: D form. The star is where a group is joined. d(aIle) = CC[C@H](C)[C@@H](N)C(=O)O; d(aThr) = C[C@@H](O)[C@@H](N)C(=O)O; Hexanoyl(5-Me) = CC(C)CCCC(=O)*; Orn = NCCC[C@H](N)C(=O)O; Dhb = C/C=C(\N)C(=O)O
For each of the compounds below, state its CC50.

Problem: Endpoint output: CC50 of C/C=C1\NC(=O)[C@H](Cc2ccc(F)c(F)c2)NC(=O)[C@@H](C(C)C)NC(=O)[C@@H]([C@@H](C)CC)NC(=O)[C@H](NC(=O)[C@H](NC(=O)[C@H](CCCN)NC(=O)[C@H]2CCCN2C(=O)[C@H](NC(=O)[C@@H](NC(=O)[C@@H](NC(=O)[C@H](NC(=O)CCCC(C)C)C(C)C)[C@@H](C)O)C(C)C)C(C)C)[C@@H](C)CC)[C@@H](C)OC(=O)[C@H](C(C)C)NC1=O [Compound 84, [Phe(3,4-F2)^3]-KF] . Value?
Result: 152 nM

Problem: Next compound up: C/C=C1\NC(=O)[C@H](Cc2ccc(Cl)cc2)NC(=O)[C@@H](C(C)C)NC(=O)[C@@H]([C@@H](C)CC)NC(=O)[C@H](NC(=O)[C@H](NC(=O)[C@H](CCCN)NC(=O)[C@H]2CCCN2C(=O)[C@H](NC(=O)[C@@H](NC(=O)[C@@H](NC(=O)[C@H](NC(=O)CCCC(C)C)C(C)C)[C@@H](C)O)C(C)C)C(C)C)[C@@H](C)CC)[C@@H](C)OC(=O)[C@H](C(C)C)NC1=O [Compound 83, [Phe(4-Cl)^3]-KF]
Result: 172 nM

Problem: Next compound up: C/C=C1\NC(=O)[C@H](Cc2ccccc2)NC(=O)[C@@H](C(C)C)NC(=O)[C@@H]([C@@H](C)CC)NC(=O)[C@H](NC(=O)[C@H](NC(=O)[C@H](CCCN)NC(=O)[C@H]2CCCN2C(=O)[C@H](NC(=O)[C@@H](NC(=O)[C@H](CCC(=O)O)NC(=O)[C@H](NC(=O)CCCC(C)C)C(C)C)C(C)C)C(C)C)[C@@H](C)CC)[C@@H](C)OC(=O)[C@H](C(C)C)NC1=O [Compound 115, [Glu^12]-KF] ({Hexanoyl(5-Me)}-[dV]EV[dV][dP][Orn][d(aIle)][d(aThr)][d(aIle)][dV]F[Dhb]V; ester 8-C)
Result: 5090 nM

* * *

For each of the molecules below, state its CC50.
System: IGROV-ET
Test: SRB colorimetric assay of cell growth and viability, IGROV-ET
Format: cell-based, human
Details: 48 hours exposure; read-out: LC50 IGROV-ET
Where a SMILES comes first, the peptide text is derived from it. Bridges are numbered along the chain shown (N, C = ends). [ ]: non-standard residue; d: D form. The star is where a group is joined. d(aIle) = CC[C@H](C)[C@@H](N)C(=O)O; d(aThr) = C[C@@H](O)[C@@H](N)C(=O)O; hCha = N[C@@H](CCC1CCCCC1)C(=O)O; Hexanoyl(5-Me) = CC(C)CCCC(=O)*; Orn = NCCC[C@H](N)C(=O)O; Dhb = C/C=C(\N)C(=O)O
Write it as a number; the unit µM goes unstated.

Problem: Endpoint output: CC50 of C/C=C1\NC(=O)[C@H](Cc2ccccc2)NC(=O)[C@@H](C(C)C)NC(=O)[C@@H]([C@@H](C)CC)NC(=O)[C@H](NC(=O)[C@H](NC(=O)[C@H](CCCN)NC(=O)[C@H]2CCCN2C(=O)[C@H](NC(=O)[C@H](C)NC(=O)[C@@H](NC(=O)[C@H](NC(=O)CCCC(C)C)C(C)C)[C@@H](C)O)C(C)C)[C@@H](C)CC)[C@@H](C)OC(=O)[C@H](C(C)C)NC1=O [Compound 44, [Ala^11]-KF] ({Hexanoyl(5-Me)}-[dV]TA[dV][dP][Orn][d(aIle)][d(aThr)][d(aIle)][dV]F[Dhb]V; ester 8-C) . Value?
Result: 5.77

Problem: Next molecule up: C/C=C1\NC(=O)[C@H](Cc2ccccc2)NC(=O)[C@@H](C(C)C)NC(=O)[C@@H]([C@@H](C)CC)NC(=O)[C@H](NC(=O)[C@H](NC(=O)[C@H](CCC(=O)O)NC(=O)[C@H]2CCCN2C(=O)[C@H](NC(=O)[C@@H](NC(=O)[C@@H](NC(=O)[C@H](NC(=O)CCCC(C)C)C(C)C)[C@@H](C)O)C(C)C)C(C)C)[C@@H](C)CC)[C@@H](C)OC(=O)[C@H](C(C)C)NC1=O [Compound 4, [Glu^8]-KF] ({Hexanoyl(5-Me)}-[dV]TV[dV][dP]E[d(aIle)][d(aThr)][d(aIle)][dV]F[Dhb]V; ester 8-C)
Result: 3.52

Problem: Next molecule up: C/C=C1\NC(=O)[C@H](Cc2ccccc2)NC(=O)[C@@H](C(C)C)NC(=O)[C@@H]([C@@H](C)CC)NC(=O)[C@H](NC(=O)[C@H](NC(=O)[C@H](CCCN)NC(=O)[C@H]2CCCN2C(=O)[C@H](NC(=O)[C@H](CCC2CCCCC2)NC(=O)[C@@H](NC(=O)[C@H](NC(=O)CCCC(C)C)C(C)C)[C@@H](C)O)C(C)C)[C@@H](C)CC)[C@@H](C)OC(=O)[C@H](C(C)C)NC1=O [Compound 9, [hCh^11]-KF] ({Hexanoyl(5-Me)}-[dV]T[hCha][dV][dP][Orn][d(aIle)][d(aThr)][d(aIle)][dV]F[Dhb]V; ester 8-C)
Result: 2.94

Problem: Next molecule up: C/C=C1\NC(=O)[C@H](Cc2ccccc2)NC(=O)[C@@H](C(C)C)NC(=O)[C@@H]([C@@H](C)CC)NC(=O)[C@H](NC(=O)[C@H](NC(=O)[C@H](CCCN)NC(=O)[C@H]2CCCN2C(=O)[C@H](NC(=O)[C@@H](NC(=O)[C@@H](NC(=O)[C@H](NC(=O)CCCCCCC)C(C)C)[C@@H](C)O)C(C)C)C(C)C)[C@@H](C)CC)[C@@H](C)OC(=O)[C@H](C(C)C)NC1=O [Compound 18, [Oct^14]-KF]
Result: 2.01
